meta.source: patent US20250115620A1

Provide the recorded EC50 for the entries that follow.
# Test system: HIV-1 (IIIB)
# assayExplanation: microbe, parasite or virus in culture
# Format: cell-based
# conditionDescription: Human immunodeficiency virus 1, IIIB, MT4, 120 h, HIV-1 (IIIB) in MT-4 cells, 5 days incubation, Cell Titer Glo; read-out: MT4 EC50
Write the numeric value and append its unit.

Examples from the recorded data:
[[record]]
compound = "C[C@H]1CC[C@]2(CC(C(F)F)=NO2)[C@H]2CN1C(=O)c1c(O)c(=O)c(C(=O)NCc3ccc(F)cc3F)cn12"
parametermeasured = "EC50"
endpointresult = "1.4 nM"

[[record]]
compound = "C[C@H]1CC[C@]2(CC(=O)N(Cc3cccc4[nH]cnc34)O2)[C@H]2CN1C(=O)c1c(O)c(=O)c(C(=O)NCc3c(F)cc(F)cc3F)cn12"
parametermeasured = "EC50"
endpointresult = "6.1 nM"

[[record]]
compound = "CO[C@H]1CS[C@]2(CC[C@H](C)N3C[C@H]2n2cc(C(=O)NCc4c(F)cc(F)cc4F)c(=O)c(O)c2C3=O)O1 (single isomer, unassigned) [170 (peak 1)]"
parametermeasured = "EC50"
endpointresult = "1.3 nM"


Record EC50 per entry; entries follow.
1. [2H]C([2H])([2H])OC1=NO[C@@]2(CC[C@H](C)N3C[C@H]2n2cc(C(=O)NCc4c(F)cc(F)cc4F)c(=O)c(O)c2C3=O)C1([2H])[2H]
2. C[C@H]1CC[C@]2(CO2)[C@H]2CN1C(=O)c1c(O)c(=O)c(C(=O)NCc3c(F)cc(F)cc3F)cn12
3. COCCOC1=NO[C@@]2(CC[C@H](C)N3C[C@H]2n2cc(C(=O)NCc4c(F)cc(F)cc4F)c(=O)c(O)c2C3=O)C1

1. 1 nM
2. 1.4 nM
3. 1.2 nM

* * *

# assayExplanation: in vitro
# conditionDescription: human, uninfected MT-4 cells
parameterMeasured: CC50 at 5 days (µM)
One number for each entry, in µM.

[[record]]
compound = "CCC1=NO[C@@]2(CC[C@H](C)N3C[C@H]2n2cc(C(=O)NCc4c(F)cc(F)cc4F)c(=O)c(O)c2C3=O)C1 [Example 67]"
resultunits = "µM"
endpointresult = 20

[[record]]
compound = "C[C@H]1CC[C@]2(CC(CF)=NO2)[C@H]2CN1C(=O)c1c(O)c(=O)c(C(=O)NCc3ccc(F)cc3F)cn12 [Example 17]"
resultunits = "µM"
endpointresult = 20.5


Let us move to another entry and its CC50 at 5 days.
# compound C[C@H]1CCC2(OCCCO2)[C@H]2CN1C(=O)c1c(O)c(=O)c(C(=O)NCc3c(F)cc(F)cc3F)cn12 [Example 128] ; its CC50 at 5 days = 20.5

* * *

Provide the recorded EC50 for the entries that follow.
# Tested on: pLAI reporter virus
# assayExplanation: microbe, parasite or virus in culture
# Assay type: cell-based, HIV
# conditionDescription: Human immunodeficiency virus 1, MT4, 72 h, read-out: RLUC CCM EC50
Numbers only, in nM.

[[record]]
givensmiles = "C[C@H]1CC[C@]2(CC(=O)N(Cc3ccc(Cl)cc3)O2)[C@H]2CN1C(=O)c1c(O)c(=O)c(C(=O)NCc3c(F)cc(F)cc3F)cn12"
endpointresult = 0.3

[[record]]
givensmiles = "COc1ccc(CN2C(C)=NO[C@@]23CC[C@H](C)N2C[C@H]3n3cc(C(=O)NCc4ccc(F)cc4F)c(=O)c(O)c3C2=O)cc1"
endpointresult = 1.3

[[record]]
givensmiles = "CC1=NO[C@@]2(CC[C@H](C)N3C[C@H]2n2cc(C(=O)NCc4ccc(F)cc4F)c(=O)c(O)c2C3=O)C1"
endpointresult = 0.3

[[record]]
givensmiles = "[2H]C([2H])([2H])OC1=NO[C@@]2(CC[C@H](C)N3C[C@H]2n2cc(C(=O)NCc4ccc(F)cc4F)c(=O)c(O)c2C3=O)C1"
endpointresult = 0.2

[[record]]
givensmiles = "C[C@H]1CC[C@]2(CC(=O)N(Cc3ccccn3)O2)[C@H]2CN1C(=O)c1c(O)c(=O)c(C(=O)NCc3c(F)cc(F)cc3F)cn12"
endpointresult = 0.8


# compound C[C@H]1CC[C@]2(CC(n3cccn3)=NO2)[C@H]2CN1C(=O)c1c(O)c(=O)c(C(=O)NCc3c(F)cc(F)cc3F)cn12 ; its EC50 = 0.5

* * *

Provide the recorded EC50 for the entries that follow.
# Tested on: HIV-1 (IIIB)
# assayExplanation: microbe, parasite or virus in culture
# Assay type: cell-based
# conditionDescription: Human immunodeficiency virus 1, IIIB, MT4, 120 h, HIV-1 (IIIB) in MT-4 cells, 5 days incubation, Cell Titer Glo; read-out: MT4 EC50
Answers are plain numbers, in nM.

[[record]]
compound = "C[C@H]1OC[C@]2(CC[C@H](C)N3C[C@H]2n2cc(C(=O)NCc4c(F)cc(F)cc4F)c(=O)c(O)c2C3=O)O1"
endpointresult = 1.4

[[record]]
compound = "COc1ccc(CN2C(C)=NO[C@@]23CC[C@H](C)N2C[C@H]3n3cc(C(=O)NCc4ccc(F)cc4F)c(=O)c(O)c3C2=O)cc1"
endpointresult = 4.1

[[record]]
compound = "C[C@H]1CC[C@]2(CC(=O)N(Cc3ccc4ccccc4c3)O2)[C@H]2CN1C(=O)c1c(O)c(=O)c(C(=O)NCc3c(F)cc(F)cc3F)cn12"
endpointresult = 0.8


Record EC50 per entry; entries follow.
1. C[C@H]1CCC2(OCCO2)[C@H]2CN1C(=O)c1c(O)c(=O)c(C(=O)NCc3ccc(F)cc3F)cn12
2. CC1=NO[C@@]2(CC[C@H](C)N3C[C@H]2n2cc(C(=O)NCc4ccc(F)cc4F)c(=O)c(O)c2C3=O)N1
3. CO[C@H]1CS[C@@]2(CC[C@H](C)N3C[C@H]2n2cc(C(=O)NCc4c(F)cc(F)cc4F)c(=O)c(O)c2C3=O)O1 (single isomer, unassigned) [170 (peak 3)]

1. 0.5
2. 3.4
3. 1.2

Record EC50 per entry; entries follow.
1. C[C@H]1CC[C@@]2(COCO2)[C@H]2CN1C(=O)c1c(O)c(=O)c(C(=O)NCc3c(F)cc(F)cc3F)cn12
2. C[C@H]1CC[C@@]2(CC(=O)N(C)C2)[C@H]2CN1C(=O)c1c(O)c(=O)c(C(=O)NCc3c(F)cc(F)cc3F)cn12
3. C[C@H]1CC[C@@]2(CC(CF)=NO2)[C@H]2CN1C(=O)c1c(O)c(=O)c(C(=O)NCc3ccc(F)cc3F)cn12
4. C[C@H]1CC[C@@]2(CCO2)[C@H]2CN1C(=O)c1c(O)c(=O)c(C(=O)NCc3c(F)cc(F)cc3F)cn12
5. C[C@H]1CC[C@]2(CC(CF)=NO2)[C@H]2CN1C(=O)c1c(O)c(=O)c(C(=O)NCc3ccc(F)cc3F)cn12
6. C[C@H]1CC[C@]2(OC[C@@H](Cc3ccccc3)O2)[C@H]2CN1C(=O)c1c(O)c(=O)c(C(=O)NCc3c(F)cc(F)cc3F)cn12 (single isomer, unassigned) [169 (peak 2)]

[1.9, 31.1, 4.5, 1.7, 0.6, 4.3]

* * *

# Test system: HIV-1 (IIIB)
# assayExplanation: microbe, parasite or virus in culture
# Assay type: cell-based
# conditionDescription: Human immunodeficiency virus 1, IIIB, MT4, 120 h, HIV-1 (IIIB) in MT-4 cells, 5 days incubation, Cell Titer Glo; read-out: MT4 EC50
parameterMeasured: EC50
Write the numeric value and append its unit.

Examples from the recorded data:
[[record]]
molecule = "C[C@H]1CCC2(OCCO2)[C@H]2CN1C(=O)c1c(O)c(=O)c(C(=O)NCc3c(F)cc(F)cc3F)cn12"
endpointresult = "0.7 nM"

[[record]]
molecule = "[2H]C1C(OC)=NO[C@@]12CC[C@H](C)N1C[C@H]2n2cc(C(=O)NCc3c(F)cc(F)cc3F)c(=O)c(O)c2C1=O (stereo partly drawn)"
endpointresult = "2.3 nM"


Let us move to another entry and its EC50.
# molecule CCC1=NO[C@@]2(CC[C@H](C)N3C[C@H]2n2cc(C(=O)NCc4ccc(F)cc4F)c(=O)c(O)c2C3=O)O1 ; its EC50 = 1 nM

* * *

# Test system: pLAI reporter virus
# assayExplanation: microbe, parasite or virus in culture
# Type: cell-based, HIV
# conditionDescription: Human immunodeficiency virus 1, MT4, 72 h, read-out: RLUC CCM EC50
parameterMeasured: pEC50
Numbers only, as −log10 of the molar value.

Examples from the recorded data:
[[record]]
molecule = "C[C@H]1CC[C@]2(CC(c3cccnc3)=NO2)[C@H]2CN1C(=O)c1c(O)c(=O)c(C(=O)NCc3ccc(F)cc3F)cn12"
targetentity = "pLAI reporter virus"
endpointresult = 9.10

[[record]]
molecule = "COCCOC1=NO[C@@]2(CC[C@H](C)N3C[C@H]2n2cc(C(=O)NCc4c(F)cc(F)cc4F)c(=O)c(O)c2C3=O)C1"
targetentity = "pLAI reporter virus"
endpointresult = 9.52

[[record]]
molecule = "C[C@H]1CC[C@]2(CC(=O)N(Cc3nc4ccccc4[nH]3)O2)[C@H]2CN1C(=O)c1c(O)c(=O)c(C(=O)NCc3c(F)cc(F)cc3F)cn12"
targetentity = "pLAI reporter virus"
endpointresult = 8.85

[[record]]
molecule = "CCC1=NO[C@@]2(CC[C@H](C)N3C[C@H]2n2cc(C(=O)NCc4c(F)cc(F)cc4F)c(=O)c(O)c2C3=O)C1"
targetentity = "pLAI reporter virus"
endpointresult = 9.52

[[record]]
molecule = "C[C@H]1CC[C@]2(CCC(=O)N2)[C@H]2CN1C(=O)c1c(O)c(=O)c(C(=O)NCc3c(F)cc(F)cc3F)cn12"
targetentity = "pLAI reporter virus"
endpointresult = 7.77

[[record]]
molecule = "C[C@H]1CC[C@]2(CC(N3CCCC3)=NO2)[C@H]2CN1C(=O)c1c(O)c(=O)c(C(=O)NCc3c(F)cc(F)cc3F)cn12"
targetentity = "pLAI reporter virus"
endpointresult = 9.52


Record pEC50 per entry; entries follow.
1. C[C@H]1CC[C@@]2(COCCO2)[C@H]2CN1C(=O)c1c(O)c(=O)c(C(=O)NCc3c(F)cc(F)cc3F)cn12
2. C[C@H]1CC[C@]2(CCCN2)[C@H]2CN1C(=O)c1c(O)c(=O)c(C(=O)NCc3c(F)cc(F)cc3F)cn12
3. C[C@H]1CC[C@]2(CC(C(C)(F)F)=NO2)[C@H]2CN1C(=O)c1c(O)c(=O)c(C(=O)NCc3c(F)cc(F)cc3F)cn12
4. [2H]C([2H])([2H])OC1=NO[C@@]2(CC[C@H](C)N3C[C@H]2n2cc(C(=O)NCc4c(F)cc(F)cc4F)c(=O)c(O)c2C3=O)C1([2H])[2H]
5. C[C@H]1CC[C@@]2(CC(CF)=NO2)[C@H]2CN1C(=O)c1c(O)c(=O)c(C(=O)NCc3ccc(F)cc3F)cn12
6. CC1=NO[C@@]2(CC[C@H](C)N3C[C@H]2n2cc(C(=O)NCc4ccc(F)cc4F)c(=O)c(O)c2C3=O)[C@H]1F (single isomer, unassigned) [Example 27 (peak 1)]

1. 10.00
2. 9.05
3. 9.70
4. 9.52
5. 8.80
6. 9.70
